- System: SK-MEL-5 melanoma
- Test details: NCI tumour cell line growth inhibition, 48 h
Measured parameter: GI50

Would you please look over these solved cases?
Molecule | Experimental value
COc1cc2c(cc1OCCN1C(=O)c3cccc4cccc(c34)C1=O)N=C[C@@H]1CCCN1C2=O | 13.1 µM
Cc1cc(C)c(S(=O)(=O)Oc2ccccc2[N+](=O)[O-])c(C)c1 | 2 µM
CC(=O)O[C@H]1CC[C@]2(C)[C@H]3C(=O)C=C4[C@@H]5C[C@](C)(C(=O)N6CCCNCC6)CC[C@]5(C)CC[C@@]4(C)[C@]3(C)CC[C@H]2C1(C)C | 2.1 µM
CNC1=C(Br)C(=O)C2=C(C1=O)C1C3=C(C(=O)C=CC3=O)C2c2ccccc21 (centres undefined) | 5.52 µM
CC(C)(C)c1cc2c(OP(c3ccccc3)c3ccccc3)c(c1)Cc1cc(C(C)(C)C)cc(c1OP(c1ccccc1)c1ccccc1)Cc1cc(C(C)(C)C)cc(c1OP(c1ccccc1)c1ccccc1)Cc1cc(C(C)(C)C)cc(c1OP(c1ccccc1)c1ccccc1)C2 | > 50 µM
CCOc1ccc2c(-c3ccnc(Nc4cccc(C(F)(F)F)c4)n3)cnn2n1 | > 25 µM
CC(=O)OC1C(O)COC(Oc2c(C)c3c4c(c2O)[C@@H](C)CC[C@@H]4[C@@H](C)C[C@H]3C=C(C)C)C1O (some centres undefined) | 15.3 µM
c1ccc(CN2CCC3(CC2)ONC2=NCCN23)cc1 | 72 µM

Would you kindly look at the next entry?
Retrieve GI50 measured for CCc1nc2cc(/C=C/C(=O)NO)c(F)cc2c(=O)n1CCc1ccccc1 and print it. 0.512 µM
